# Assay System: Rap guanine nucleotide exchange factor 4 (Homo sapiens) (UniProt Q8WZA2)
# Sequence (Q8WZA2 whole entry, looked up): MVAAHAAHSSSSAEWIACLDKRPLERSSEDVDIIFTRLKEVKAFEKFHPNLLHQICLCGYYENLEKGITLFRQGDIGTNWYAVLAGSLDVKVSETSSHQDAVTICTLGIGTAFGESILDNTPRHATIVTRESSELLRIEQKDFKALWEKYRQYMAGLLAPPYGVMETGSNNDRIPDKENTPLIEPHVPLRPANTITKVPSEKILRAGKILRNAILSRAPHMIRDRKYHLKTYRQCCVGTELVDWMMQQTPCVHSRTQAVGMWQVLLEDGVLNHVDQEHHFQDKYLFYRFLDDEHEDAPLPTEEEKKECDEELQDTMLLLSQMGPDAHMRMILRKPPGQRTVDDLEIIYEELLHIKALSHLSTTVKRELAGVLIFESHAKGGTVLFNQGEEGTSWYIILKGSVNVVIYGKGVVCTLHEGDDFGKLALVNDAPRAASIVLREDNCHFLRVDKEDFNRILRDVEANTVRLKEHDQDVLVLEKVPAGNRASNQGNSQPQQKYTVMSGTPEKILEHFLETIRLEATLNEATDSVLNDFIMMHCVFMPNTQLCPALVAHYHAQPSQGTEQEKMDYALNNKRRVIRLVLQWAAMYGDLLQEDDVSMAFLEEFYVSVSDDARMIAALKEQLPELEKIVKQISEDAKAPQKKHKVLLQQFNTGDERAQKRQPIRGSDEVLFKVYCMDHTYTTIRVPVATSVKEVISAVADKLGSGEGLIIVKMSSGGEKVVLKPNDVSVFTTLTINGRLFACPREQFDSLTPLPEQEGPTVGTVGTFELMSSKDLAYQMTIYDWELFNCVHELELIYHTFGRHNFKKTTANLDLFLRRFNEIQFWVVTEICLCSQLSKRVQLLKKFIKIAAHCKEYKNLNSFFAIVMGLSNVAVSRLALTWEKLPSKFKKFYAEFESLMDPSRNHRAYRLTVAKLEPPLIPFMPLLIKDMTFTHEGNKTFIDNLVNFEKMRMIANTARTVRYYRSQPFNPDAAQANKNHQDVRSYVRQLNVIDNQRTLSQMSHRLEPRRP
# Test Protocol: Confirmatory qHTS for antagonist of cAMP-regulated guanine nucleotide exchange factor 4 (EPAC2) (AID 1645885); note: nearly all actives have a fitted effect of over 25% in size; note: potency is the fitted concentration of half-maximal effect
# Applied Conditions: EPAC2 Rap1B-BODIPY-GDP exchange fluorescence, biochemical; series mostly up to 12.7 µM
Records with an inconclusive call do not appear. The source made the active and inactive calls. Calls come from the whole dose curve; as a rule, active = well fitted inhibition curve with a large enough effect; inconclusive = small, poorly fitted or top-dose-only effect; inactive = no such curve, though single readings can be large or run the other way.

[
  {
    "Compound": "CC1=C(C#N)C(=O)OC(C)(C)C1",
    "Assay System": "Rap guanine nucleotide exchange factor 4 (Homo sapiens) (UniProt Q8WZA2)",
    "Potency": "0.601 µM (active)"
  },
  {
    "Compound": "COCOCCn1cc(CN2CCS(=O)(=O)N(Cc3ccc(-c4ccc(F)cc4)cc3)C(CC(C)C)C2=O)nn1 (stereo unspecified)",
    "Assay System": "Rap guanine nucleotide exchange factor 4 (Homo sapiens) (UniProt Q8WZA2)",
    "Potency": "8.49 µM (active)"
  },
  {
    "Compound": "COc1ccc(O)c(C(c2c(C)[nH][nH]c2=O)c2c(C)[nH][nH]c2=O)c1",
    "Assay System": "Rap guanine nucleotide exchange factor 4 (Homo sapiens) (UniProt Q8WZA2)",
    "Potency": "75.7 µM (active)"
  },
  {
    "Compound": "O=C(NCCCN1CCOCC1)c1ccc2c(c1)N(Cc1cccc(Cl)c1)C(=O)c1ccccc1S2",
    "Assay System": "Rap guanine nucleotide exchange factor 4 (Homo sapiens) (UniProt Q8WZA2)",
    "Potency": "inactive"
  },
  {
    "Compound": "O=C(C1CC1)N1CCN(c2ccc([N+](=O)[O-])cc2-n2cccc2)CC1",
    "Assay System": "Rap guanine nucleotide exchange factor 4 (Homo sapiens) (UniProt Q8WZA2)",
    "Potency": "inactive"
  },
  {
    "Compound": "Cc1[nH]c(=O)nc(SCc2cccc(Cl)c2)c1C#N",
    "Assay System": "Rap guanine nucleotide exchange factor 4 (Homo sapiens) (UniProt Q8WZA2)",
    "Potency": "inactive"
  },
  {
    "Compound": "O=C(CSc1nccn1C1CCCC1)Nc1cc(C(F)(F)F)ccc1Cl",
    "Assay System": "Rap guanine nucleotide exchange factor 4 (Homo sapiens) (UniProt Q8WZA2)",
    "Potency": "inactive"
  },
  {
    "Compound": "Cc1csc(NC(=O)CSCC(=O)O)c1-c1nc2ccccc2s1",
    "Assay System": "Rap guanine nucleotide exchange factor 4 (Homo sapiens) (UniProt Q8WZA2)",
    "Potency": "inactive"
  },
  {
    "Compound": "Oc1c(Br)cc(Br)cc1CNc1cccc2cccnc12",
    "Assay System": "Rap guanine nucleotide exchange factor 4 (Homo sapiens) (UniProt Q8WZA2)",
    "Potency": "26.9 µM (active)"
  },
  {
    "Compound": "OCCCCC#Cc1c(-c2ccsc2)sc2ccccc12",
    "Assay System": "Rap guanine nucleotide exchange factor 4 (Homo sapiens) (UniProt Q8WZA2)",
    "Potency": "inactive"
  },
  {
    "Compound": "CC(=O)NNC(=O)c1sc(=S)n2c1[nH]c(=O)c1sccc12",
    "Assay System": "Rap guanine nucleotide exchange factor 4 (Homo sapiens) (UniProt Q8WZA2)",
    "Potency": "inactive"
  }
]

Values from PubChem BioAssay (NCATS)
